Test system: human SKM-1 acute myeloid leukemia cells
Assay: SKM-1 antiproliferation cell-based assay (ATPlite)
Conditions: Homo sapiens, SKM-1, 96 h, SKM-1 antiproliferation assay, 4 days, Table C2
RECORDED_ENDPOINT: GI50

Check out these entries, answers already filled in.
CN1CCCN(c2ccc(-c3cccc(-c4ccnc(N5CCNCC5)c4)c3O)cc2F)C1=O	≥ 3000 nM
CC(=O)Nc1ccc(-c2cc(Cl)cc(-c3ccnc(N4CCNCC4)c3)c2O)cc1F	30 to 300 nM
COCC(C)(C)N1CCN(c2cccc(-c3cc(F)cc(-c4ccc(-n5ccn(C)c5=O)c(Cl)c4)c3O)c2)CC1	0.3 to 30 nM
CN1CCN(c2ccc(-c3cccc(-c4ccc(C#N)c(N5CCNCC5)c4)c3O)cc2Cl)C1=O	30 to 300 nM
Cn1ccn(-c2ccc(-c3cc(F)cc(-c4ccnc(N5CCN(CCN)CC5)c4)c3O)cc2Cl)c1=O	0.3 to 30 nM
Cn1ccn(-c2ccc(-c3cc(F)cc(-c4cc(N5CC[C@H](N)C5)c5nn[nH]c5c4)c3O)cc2Cl)c1=O	30 to 300 nM

Record "CC(=O)Nc1ccc(-c2cccc(-c3ccnc(N4CC[C@@H](N)C4)c3)c2O)cc1F" , field GI50: 30 to 300 nM

Short answer for CC(=O)NC1CN(c2cc(-c3cc(F)cc(-c4ccc(-n5ccn(C)c5=O)c(Cl)c4)c3O)ccn2)CC12CC2 (centres unmarked) : GI50 was 0.3 to 30 nM

* * *

Target: human BRD4 bromodomain II (Homo sapiens)
Construct: human BRD4 bromodomain II [based on Genbank NM_058243, residues 349-460]; host or cells: E. coli
Assay: Bromodomain binding assay (AlphaScreen), BRD4 BDII
Conditions: AlphaScreen assay, Table C2; read-out: BRD4 BDII IC50
pIC50: −log10 of the molar value.
RECORDED_ENDPOINT: pIC50

Some solved cases for reference:
CN1CCN(c2ccc(-c3cccc(-c4cc(CO)cc(N5CCNCC5)c4)c3O)cc2Cl)C1=O	8.00 to 9.00
CC(=O)Nc1ccc(-c2cccc(-c3ccnc(N4CC[C@@H](N)C4)c3)c2O)cc1F	8.00 to 9.00
Cn1ccn(-c2ccc(-c3cc(F)cc(-c4ccnc(N5CC6(CNC6)C5)c4)c3O)cc2Cl)c1=O	8.00 to 9.00
COc1cc(-c2cccc(-c3cc(Cl)c(NC(C)=O)c(Cl)c3)c2O)ccc1NC(C)=O	7.00 to 8.00
CC(=O)Nc1ccc(-c2cccc(-c3cc(Cl)nc(N4CCNCC4)c3)c2O)cc1F	8.00 to 9.00

Entry "O=C1CCCCN1c1ccc(-c2cccc(-c3ccnc(N4CCNCC4)c3)c2O)cc1Cl" : pIC50 on human BRD4 bromodomain II (Homo sapiens) = 7.00 to 8.00

# "Cn1ccn(-c2ccc(-c3cc(F)cc(-c4ccnc(-c5cccnc5)c4)c3O)cc2Cl)c1=O" with human BRD4 bromodomain II (Homo sapiens): pIC50 is 8.00 to 9.00

Response field pIC50 (human BRD4 bromodomain II (Homo sapiens)) for item "Cn1ccn(-c2ccc(-c3cc(F)cc(-c4cc(-c5ccn[nH]5)cc(N5CCNCC5)c4)c3O)cc2Cl)c1=O" : 9.00 to 11.00

* * *

Molecular target: human BRD4 bromodomain II (Homo sapiens, UniProt O60885)
Construct: human BRD4 bromodomain II [based on Genbank NM_058243, residues 349-460]; host or cells: E. coli
Experiment: Bromodomain binding assay (AlphaScreen), BRD4 BDII
Settings: AlphaScreen assay, Table C2; read-out: BRD4 BDII IC50
RECORDED_ENDPOINT: IC50

# count of solved cases: 3
Cn1ccn(-c2ccc(-c3cc(F)cc(-c4cc(N5CC[C@@H](N)C5)c5cn[nH]c5c4)c3O)cc2Cl)c1=O [Example 593]	0.01 to 1 nM
COc1cc(-c2cccc(-c3ccc(N4CCCC4=O)c(F)c3)c2O)ccc1NC(C)=O [Example 129]	10 to 100 nM
CN1CC2CN(c3cc(-c4cc(F)cc(-c5ccc(-n6ccn(C)c6=O)c(Cl)c5)c4O)ccn3)CC21 (stereo not drawn) [Example 659]	0.01 to 1 nM

Record Cn1ccn(-c2ccc(-c3cc(F)cc(-c4ccnc(-c5ccncc5)c4)c3O)cc2Cl)c1=O [Example 481] , field IC50: 1 to 10 nM

GET /value?item= CC(=O)N1CCN(c2ccc(-c3cc(F)cc(-c4ccnc(N5CCNCC5)c4)c3O)cc2Cl)C1=O [Example 381] &field=IC50 returns > 100 nM

IC50 measured on CC(=O)NC1(C)CN(c2cc(-c3cc(F)cc(-c4ccc(-n5ccn(C)c5=O)c(Cl)c4)c3O)ccn2)C1 [Example 768] = 1 to 10 nM

// sample CC(C)[C@@H]1CN(c2cc(-c3cc(F)cc(-c4ccc(-n5ccn(C)c5=O)c(Cl)c4)c3O)cc3[nH]ncc23)CCN1 [Example 597] , its IC50 was 1 to 10 nM

Lab note: CN1CCN(c2ccc(-c3cccc(-c4ccc5[nH]c6c(c5c4)CNCC6)c3O)cc2Cl)C1=O [Example 369] gave IC50 of 10 to 100 nM

response.value for CC(C)N1CCN(c2cc(-c3cc(F)cc(-c4ccc(-n5ccn(C)c5=O)c(Cl)c4)c3O)cn(C)c2=O)CC1 [Example 661] (field: IC50) = 0.01 to 1 nM

Value of measured IC50 for the entry CC[C@@]1(O)CCN(c2cc(-c3cc(F)cc(-c4ccc(-n5ccn(C)c5=O)c(Cl)c4)c3O)ccn2)C1 [Example 820] : 1 to 10 nM

Form field IC50, entry CN1CCN(c2ccc(-c3cc(F)cc(-c4ncc(N5CCOCC5)cc4N4CCNCC4)c3O)cc2Cl)C1=O [Example 416] : 10 to 100 nM

So for Cc1cc(-c2ccc(-n3ccn(C)c3=O)c(Cl)c2)c(O)c(-c2cc(N3CCNCC3)c3nn[nH]c3c2)c1 [Example 565] , the logged IC50 turned out to be 0.01 to 1 nM

Field IC50 (entry CC(=O)Nc1ccc(-c2cccc(-c3cc(N4CCNCC4)no3)c2O)cn1 [Example 76, 2,2,2-trifluoroacetate] ) reads > 100 nM

Memo: CN1CCN(c2ccc(-c3cc(F)cc(-c4ccnc(N5CC[C@H](N)C5)c4)c3O)cc2Cl)C1=O [Example 353] , reported IC50: 1 to 10 nM

Lab note: measured IC50 of CCc1cc(-c2cccc(-c3ccc(NC(C)=O)c(F)c3)c2O)ccc1NC(C)=O [Example 88] was > 100 nM

* * *

Molecular target: human BRD4 bromodomain II (Homo sapiens)
Construct: human BRD4 bromodomain II [based on Genbank NM_058243, residues 349-460]; host or cells: E. coli
Test: Bromodomain binding assay (AlphaScreen), BRD4 BDII
Details: AlphaScreen assay, Table C2; read-out: BRD4 BDII IC50
RECORDED_ENDPOINT: IC50

Take a look at these entries with their results.
COc1ccc(-c2cccc(-c3ccc(NC(C)=O)c(F)c3)c2O)cc1 [Example 61]	> 100 nM
Cn1ccn(-c2ccc(-c3cc(F)cc(-c4ccnc(N5CC[C@H](O)C5)c4)c3O)cc2Cl)c1=O [Example 626]	0.01 to 1 nM
CC(=O)Nc1ccc(-c2cccc(-c3cccc(N4CCNCC4=O)c3)c2O)cc1F [Example 191]	> 100 nM
CN1CCN(c2ccc(-c3cccc(-c4cccc(N5CCNCC5)c4)c3O)cc2F)C1=O [Example 164]	1 to 10 nM

For CC(=O)Nc1ccc(-c2cccc(-c3cccc(N4CC(CN)C4)c3)c2O)cc1F [Example 220] the compound record lists IC50 as 10 to 100 nM

IC50 reported for this compound CC(C)N1CC2CN(c3cc(-c4cc(F)cc(-c5ccc(-n6ccn(C)c6=O)c(Cl)c5)c4O)ccn3)CC21 (centres unmarked) [Example 747] : 0.01 to 1 nM

IC50 reading for O=C1CCCCN1c1ccc(-c2cc(F)cc(-c3ccnc(N4CCNCC4)c3)c2O)cc1F [Example 280] : 10 to 100 nM

Sample COc1cccc(-c2cccc(-c3ccc(NC(C)=O)c(F)c3)c2O)c1 [Example 56] ; IC50 observed: > 100 nM

* * *

Form field: GI50 (one value per entry).
Test system: human SKM-1 acute myeloid leukemia cells
Assay: SKM-1 antiproliferation cell-based assay (ATPlite)
Details: Homo sapiens, SKM-1, 96 h, SKM-1 antiproliferation assay, 4 days, Table C2

The examples below pair each entry with its known result.
Cn1ccn(-c2ccc(-c3cc(F)cc(-c4cccc(N5CC[C@@](C)(O)C5)c4)c3O)cc2Cl)c1=O [Example 807]	30 to 300 nM
CC(=O)Nc1ccc(-c2cc(F)cc(-c3ccnc(N4CC5(CNC5)C4)c3)c2O)cc1F [Example 321]	30 to 300 nM
CC(=O)Nc1ccc(-c2cc(F)cc(-c3ccnc(N4CCNCC4)c3)c2O)cc1Cl [Example 222]	300 to 3000 nM
CN1CCCC12CCN(c1cc(-c3cc(F)cc(-c4ccc(-n5ccn(C)c5=O)c(Cl)c4)c3O)cn(C)c1=O)C2 (stereo not drawn) [Example 696]	0.3 to 30 nM
Cn1ccn(-c2ccc(-c3cc(F)cc(-c4ccnc(N5CC(C)(O)C6(CC6)C5)c4)c3O)cc2Cl)c1=O (stereo not drawn) [Example 779]	0.3 to 30 nM
O=C1CCCN1c1ccc(-c2cccc(-c3ccnc(N4CCNCC4)c3)c2O)cc1Cl [Example 209]	30 to 300 nM
CN(C)[C@@H]1CN(c2cc(-c3cc(F)cc(-c4ccc(-n5ccn(C)c5=O)c(Cl)c4)c3O)ccn2)C[C@H]1O [Example 752]	0.3 to 30 nM
Cn1ccn(-c2ccc(-c3cc(F)cc(-c4ccnc(N5CCCC5)c4)c3O)cc2Cl)c1=O [Example 613]	30 to 300 nM
CC(=O)Nc1ccc(-c2cccc(-c3cccc(N4CCNCC4)c3)c2O)cc1F [Example 109]	300 to 3000 nM
Cn1ccn(-c2ccc(-c3cc(F)cc(-c4ccnc(N5CCNC(C6CC6)C5)c4)c3O)cc2Cl)c1=O (stereo not drawn) [Example 643]	30 to 300 nM

Entry under test: CN1CC2(C1)CN(c1cncc(-c3cc(F)cc(-c4ccc(-n5ccn(C)c5=O)c(Cl)c4)c3O)c1)C2 [Example 488] . Its GI50 was 0.3 to 30 nM

Looking up Cn1ccn(-c2ccc(-c3cc(F)cc(-c4cc(F)cc(N5CCN(C(C)(C)C)CC5)c4)c3O)cc2Cl)c1=O [Example 754] , I see its GI50 listed as 0.3 to 30 nM

What the record says about CN[C@H]1CCN(c2cncc(-c3cc(F)cc(-c4ccc(-n5ccn(C)c5=O)c(Cl)c4)c3O)c2)C1 [Example 476] : GI50 is 0.3 to 30 nM

Recorded GI50 (molecule Cc1cc(-c2ccc(-n3ccn(C)c3=O)c(Cl)c2)c(O)c(-c2cc(N3CCN[C@H](C)C3)c3cn[nH]c3c2)c1 [Example 585] ): 0.3 to 30 nM

Recorded result, CC(C)N1CCN(c2cc(-c3cc(F)cc(-c4ccc(-n5ccn(C)c5=O)c(Cl)c4)c3O)cc3[nH]ncc23)CC1 [Example 587] , GI50: 0.3 to 30 nM
